Assay: Plasma pharmacokinetics of t-TUCB after intravenous administration
Format: in vivo, horses
Conditions: Thoroughbred, Quarter Horse, Dutch Warmblood, plasma, iv, 0.1 mg/kg
metric: AUC(0-t)
Answer as a quantity: numeral, then unit.

Inquiry: For the compound O=C(Nc1ccc(OC(F)(F)F)cc1)N[C@H]1CC[C@H](Oc2ccc(C(=O)O)cc2)CC1 , give its reported AUC(0-t).
Reply text: 1610 ng·h/mL

====

Assay: Plasma pharmacokinetics of t-TUCB after intravenous administration
Assay type: in vivo, horses
Conditions: plasma, iv, 1 mg/kg
metric: clearance (mL/min/kg)
Report only the number, with the unit mL/min/kg understood.

Inquiry: For the compound O=C(Nc1ccc(OC(F)(F)F)cc1)N[C@H]1CC[C@H](Oc2ccc(C(=O)O)cc2)CC1 [t-TUCB] , give its reported clearance.
Reply text: 0.233

====

Assay: Plasma pharmacokinetics of t-TUCB after intravenous administration
Format: in vivo, horses
Details: Thoroughbred, Quarter Horse, Dutch Warmblood, plasma, iv, 1 mg/kg
metric: AUC(0-t) (ng·h/mL)
Report only the number, with the unit ng·h/mL understood.

Inquiry: For the compound O=C(Nc1ccc(OC(F)(F)F)cc1)N[C@H]1CC[C@H](Oc2ccc(C(=O)O)cc2)CC1 , give its reported AUC(0-t).
Reply text: 50100

====

Experiment: Plasma pharmacokinetics of t-TUCB after intravenous administration
Format: in vivo, horses
Details: Thoroughbred, Quarter Horse, Dutch Warmblood, plasma, iv, 0.3 mg/kg
metric: AUC(0-inf) (ng·h/mL)
Report only the number, with the unit ng·h/mL understood.

Inquiry: For the compound O=C(Nc1ccc(OC(F)(F)F)cc1)N[C@H]1CC[C@H](Oc2ccc(C(=O)O)cc2)CC1 , give its reported AUC(0-inf).
Reply text: 6370

====

Assay: Plasma pharmacokinetics of t-TUCB after intravenous administration
Type: in vivo, horses
Conditions: plasma, iv, 0.3 mg/kg
metric: clearance (mL/min/kg)
Report only the number, with the unit mL/min/kg understood.

Inquiry: For the molecule O=C(Nc1ccc(OC(F)(F)F)cc1)N[C@H]1CC[C@H](Oc2ccc(C(=O)O)cc2)CC1 , give its reported clearance.
Reply text: 0.8

====

Assay: Plasma pharmacokinetics of t-TUCB after intravenous administration
Type: in vivo, horses
Conditions: plasma, iv, 1 mg/kg
metric: half-life (h)
Report only the number, with the unit h understood.

Inquiry: For the compound O=C(Nc1ccc(OC(F)(F)F)cc1)N[C@H]1CC[C@H](Oc2ccc(C(=O)O)cc2)CC1 [t-TUCB] , give its reported half-life.
Reply text: 24

====

Experiment: Plasma pharmacokinetics of t-TUCB after intravenous administration
Format: in vivo, horses
Conditions: Thoroughbred, Quarter Horse, Dutch Warmblood (mixed group), plasma, iv, 1 mg/kg
metric: half-life (h)
Report only the number, with the unit h understood.

Inquiry: For the compound O=C(Nc1ccc(OC(F)(F)F)cc1)N[C@H]1CC[C@H](Oc2ccc(C(=O)O)cc2)CC1 , give its reported half-life.
Reply text: 24

====

Test: Plasma pharmacokinetics of t-TUCB after intravenous administration
Type: in vivo, horses
Details: Thoroughbred, Quarter Horse, Dutch Warmblood, plasma, iv, 0.3 mg/kg
metric: AUC(0-t)

Inquiry: For the compound O=C(Nc1ccc(OC(F)(F)F)cc1)N[C@H]1CC[C@H](Oc2ccc(C(=O)O)cc2)CC1 , give its reported AUC(0-t).
Reply text: 5840 ng·h/mL

====

Experiment: Plasma pharmacokinetics of t-TUCB after intravenous administration
Assay type: in vivo, horses
Details: Thoroughbred, Quarter Horse, Dutch Warmblood (mixed group), plasma, iv, 1 mg/kg
metric: Vd (L/kg)
Report only the number, with the unit L/kg understood.

Inquiry: For the compound O=C(Nc1ccc(OC(F)(F)F)cc1)N[C@H]1CC[C@H](Oc2ccc(C(=O)O)cc2)CC1 , give its reported Vd.
Reply text: 0.571

====

Assay: Plasma pharmacokinetics of t-TUCB after intravenous administration
Type: in vivo, horses
Details: plasma, iv, 1 mg/kg
metric: AUC(0-inf) (ng·h/mL)
Report only the number, with the unit ng·h/mL understood.

Inquiry: For the compound O=C(Nc1ccc(OC(F)(F)F)cc1)N[C@H]1CC[C@H](Oc2ccc(C(=O)O)cc2)CC1 , give its reported AUC(0-inf).
Reply text: 71100

====

Assay: Plasma pharmacokinetics of t-TUCB after intravenous administration
Assay type: in vivo, horses
Details: Thoroughbred, Quarter Horse, Dutch Warmblood (mixed group), plasma, iv, 1 mg/kg
metric: clearance (mL/min/kg)
Report only the number, with the unit mL/min/kg understood.

Inquiry: For the molecule O=C(Nc1ccc(OC(F)(F)F)cc1)N[C@H]1CC[C@H](Oc2ccc(C(=O)O)cc2)CC1 , give its reported clearance.
Reply text: 0.233
